# assayNotes: Apparent permeability across basolateral to apical side in human Caco2 cells
# Type: ADME, cell-based
# studyConditions: Caco-2
readoutLabel: Papp B→A (×10⁻⁶ cm/s)
Quick note: give the figure in ×10⁻⁶ cm/s, leave out the unit.

Guide cases for Papp B→A, answers given:
1. Br.N=C(N)SCc1ccccc1Oc1ccccc1CSC(=N)N :: 0.2
2. Br.COc1ccc(Sc2ccc(F)cc2CSC(=N)N)c(CSC(=N)N)c1 :: 2.4
3. Br.N=C(N)SCc1c(Br)ccc2c1oc1c(CSC(=N)N)c(Br)ccc12 :: 0.1
4. Br.N=C(N)SCc1c(F)ccc2c1oc1c(CSC(=N)N)c(F)ccc12 :: 1

Q: Fill in the blank: the reported Papp B→A of `Br.CN(C)S(=O)(=O)c1ccc(Sc2ccc(F)cc2CSC(=N)N)c(CSC(=N)N)c1` is ____.
Ans: 0.1
